- targetOrTestSystem: M1 muscarinic receptor (Homo sapiens, UniProt P11229)
- Construct: expressed in transfected cells; host or cells: CHO cells (M1-CHO, under zeocin and G418 selection)
- Sequence (P11229 1-460): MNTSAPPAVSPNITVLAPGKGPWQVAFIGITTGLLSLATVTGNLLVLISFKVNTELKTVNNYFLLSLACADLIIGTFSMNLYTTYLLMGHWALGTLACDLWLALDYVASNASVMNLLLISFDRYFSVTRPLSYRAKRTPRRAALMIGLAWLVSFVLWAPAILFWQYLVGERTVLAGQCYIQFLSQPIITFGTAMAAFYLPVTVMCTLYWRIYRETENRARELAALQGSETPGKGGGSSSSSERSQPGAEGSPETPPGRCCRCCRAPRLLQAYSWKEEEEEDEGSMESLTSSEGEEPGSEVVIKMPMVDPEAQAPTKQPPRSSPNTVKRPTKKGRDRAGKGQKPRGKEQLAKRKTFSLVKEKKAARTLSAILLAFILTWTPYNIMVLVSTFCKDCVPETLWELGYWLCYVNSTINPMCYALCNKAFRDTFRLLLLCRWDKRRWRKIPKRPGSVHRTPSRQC
- assayExplanation: Functional mobilization of intracellular calcium (FLIPR, Fluo-3), M1-CHO cells
- Format: cell-based
- assayContext: compound nos. 1-454; 100% efficacy is the maximum response obtained with the Carbachol control; read-out: M1 Efficacy
attributeMeasured: Emax

For orientation, consider the following solved cases.
# compound, attributeMeasured, valueReported
rows = [
    ("Clc1ccc2c(c1)C1(CCN(C3CCCCCC3)CC1)CN2", "Emax", "< 65%"),
    ("CCCCOC(=O)N1CC2(CCN(C3CCN(C(=O)OCC)CC3)CC2)c2cc(F)ccc21", "Emax", "65 to 85%"),
    ("O=C(OC1CCC1)N1C2CCC1CC(N1CCC3(CC1)C(=O)Nc1ccccc13)C2 (stereo not shown)", "Emax", "< 65%"),
    ("CC(=O)N[C@@H]1CC2(CCN([C@H]3C[C@@H]4CC[C@H]3C4)CC2)c2ccccc21", "Emax", "> 85%"),
    ("CC(=O)N[C@H]1CC2(CCN(CC3CC4CCC3CC4)CC2)c2ccccc21 (stereo partly shown)", "Emax", "> 85%"),
]

Log: M1 muscarinic receptor (Homo sapiens, UniProt P11229), compound CCCOC(=O)N1CCC(CN2CCC3(CC2)CN(C(C)=O)c2ccc(C)cc23)CC1 , Emax = < 65%

Log: M1 muscarinic receptor (Homo sapiens, UniProt P11229), compound CCOC(=O)N1CCC(CN2CCC3(CC2)CN(C(C)=O)c2ccc(OC(F)(F)F)cc23)CC1 , Emax = < 65%

Log: M1 muscarinic receptor (Homo sapiens, UniProt P11229), compound CCOC(=O)N1C2CCC1CC(N1CCC3(CC1)CNc1ccc(F)cc13)C2 (stereo not shown) , Emax = < 65%

Log: M1 muscarinic receptor (Homo sapiens, UniProt P11229), compound CC(=O)N[C@H]1CC2(CCN([C@@H]3C[C@@H]4CC[C@@H]3C4)CC2)c2ccccc21 , Emax = > 85%

Log: M1 muscarinic receptor (Homo sapiens, UniProt P11229), compound CCOC(=O)N1C2CCC1CC(N1CCC3(CC1)COc1ccc(F)cc13)C2 (stereo not shown) , Emax = > 85%

Data credit: patent US7858635B2
